target_system: Androgen receptor (Homo sapiens)
test_method_notes: qHTS assay to identify small molecule antagonists of the androgen receptor (AR) signaling pathway using the MDA cell line in the presence of 0.5 nM R1881 (AID 1259243); note: nearly all actives have a fitted effect of over 50% in size; note: potency is the fitted concentration of half-maximal effect
measurement_context: MDA-kb2 MMTV-luciferase, R1881 0.5 nM, 16 h; series mostly up to 92.4 µM
Results filed as inconclusive are left out. The source made the active and inactive calls. Calls come from the whole dose curve; as a rule, active = well fitted inhibition curve with a large enough effect in the repeat runs; inconclusive = weak or mixed curves; inactive = no such curve, though single readings can be large or run the other way.
measure: Potency

The cases that follow already have their Potency on record.
> print(dat)
                                   compound   recorded.value
1         O=C(/C=C/c1ccccc1)OC/C=C/c1ccccc1         inactive
2  CC(C)=CCNc1ncnc2c1ncn2[C@@H]1O[C@H](CO)[C@@H](O)[C@H]1O         inactive
3              NC(=O)c1cccc([N+](=O)[O-])c1         inactive
4                      FC(F)(F)c1cccc(Cl)c1         inactive
5  C=CC(=O)Nc1cc2c(Nc3ccc(F)c(Cl)c3)ncnc2cc1OCCCN1CCOCC1  7.5 µM (active)

Turning now to a further record.
Task item: Entry under review: `COC1=C(OC)C(=O)C(CCCCCCCCCCO)=C(C)C1=O` . Reported Potency?
Reply: 29.8 µM (active)

----------
test_method_notes: qHTS assay for identifying genotoxic compounds that show differential cytotoxicity against isogenic chicken DT40 cell lines with known DNA damage response pathways - Rad54/Ku70 mutant cell line (AID 743015); note: nearly all actives have a fitted effect of over 60% in size
measurement_context: DT40 Rad54/Ku70 mutant viability, CellTiter-Glo, 40 h; series mostly up to 66.8 µM
Inconclusive results are not listed. The source made the active and inactive calls. Calls come from the whole dose curve; as a rule, active = well fitted cell-killing curve with a large enough effect in the repeat runs; inconclusive = weak or mixed curves; inactive = no such curve, though single readings can be large or run the other way.
The categories you may choose from are label 1 = active, label 0 = inactive

molecule	answer_label
Clc1nnc(Cl)c2ccccc12	label 0
CC(C)=CCC1=C(O)c2ccccc2C(=O)C1=O	label 1

Task item: Could you please tell me the result logged for CCOC(=O)c1ccc(C2CCC(NC[C@H](O)COc3ccc(O)c(NS(C)(=O)=O)c3)CC2)cc1 (stereo partly drawn) in this assay?
Reply: label 1

Task item: Also, CCCCC(CC)COC(=O)CCCCC(=O)OCc1ccccc1 (stereo not drawn) please.
Reply: label 0

Task item: Also, `CCc1cccc(CC)c1NC(=O)CN(CC(=O)O)CC(=O)O` please.
Reply: label 0

Task item: Also, `CCn1c2ccccc2c2cc([N+](=O)[O-])ccc21` please.
Reply: label 1

Task item: Also, `Nc1ccc(NCCO)c([N+](=O)[O-])c1` please.
Reply: label 0

Task item: Also, NC[C@H]1O[C@H](O[C@H]2[C@H](O[C@@H]3O[C@H](CO)[C@@H](O)[C@H]3O)C(O)[C@H](N)C[C@@H]2N)[C@H](N)[C@@H](O)[C@@H]1O (stereo partly drawn) please.
Reply: label 0

----------
target_system: Aromatase (Homo sapiens)
test_method_notes: qHTS assay to identify aromatase inhibitors (AID 743083); note: nearly all actives have a fitted effect of over 55% in size
measurement_context: MCF-7 aro ERE, testosterone-driven ERE luciferase, 24 h; series mostly up to 70.3 µM
Records with an inconclusive call do not appear. The source made the active and inactive calls. Calls follow the shape of the dose curve; as a rule, active = well fitted inhibition curve with a large enough effect in the repeat runs; inconclusive = weak or mixed curves; inactive = no such curve, though single readings can be large or run the other way.
The categories you may choose from are active, inactive

Would you please look over these solved cases?
> print(dat)
                                   molecule  answer.label
1                            COc1cc(C)ccc1O      inactive
2                           CCCC1CCC(=O)CC1      inactive
3                      Nc1ccc(C(=O)O)c(O)c1      inactive
4  COC(=O)C1=C(C)NC(C)=C(C(=O)OCCN2CCN(C(c3ccccc3)c3ccccc3)CC2)C1c1cccc([N+](=O)[O-])c1 (stereo unspecified)        active
5              O=C(O)c1ccc2cc(C(=O)O)ccc2c1      inactive

Task item: Could you please tell me the result logged for `CCn1c2ccccc2c2cc([N+](=O)[O-])ccc21` in this assay?
Reply: inactive

Task item: Also, `CCOC(=O)Cn1cccc1-c1nc(-c2ccc(OC)cc2)c(-c2ccc(OC)cc2)s1` please.
Reply: inactive

Task item: Also, `OC[C@@H](O)[C@@H](O)CO` please.
Reply: inactive

Task item: Also, `CCc1cccc(CC)c1NC(=O)CN(CC(=O)O)CC(=O)O` please.
Reply: inactive

Task item: Also, `O=C1CCCCCCCCCCCCCCCO1` please.
Reply: inactive

----------
test_method_notes: qHTS assay to identify small molecule antagonists of the thyroid receptor (TR) signaling pathway - cell viability counter screen (AID 743064); note: nearly all actives have a fitted effect of over 50% in size
measurement_context: GH3.TRE-Luc viability, CellTiter-Fluor, 24 h; series mostly up to 70.3 µM
Inconclusive results are not listed. Calls of active or inactive are those of the source. Calls come from the whole dose curve; as a rule, active = well fitted cell-killing curve with a large enough effect in the repeat runs; inconclusive = weak or mixed curves, or effect the other way; inactive = no such curve, though single readings can be large or run the other way.
The categories you may choose from are active, inactive

Would you please look over these solved cases?
> print(dat)
                                   molecule  answer.label
1                                  CCCCCCCC      inactive
2                                  COC(C)=O      inactive
3           O=[N+]([O-])c1ccc(O)cc1C(F)(F)F        active
4  CC(=O)Oc1cc2c(s1)CCN(C(C(=O)C1CC1)c1ccccc1F)C2 (centres undefined)      inactive
5  CC[N+](CC)(CC)CCOc1ccc(/C=C/c2ccccc2)cc1      inactive

Task item: Could you please tell me the result logged for `O=C1C(c2[nH]c3ccc(S(=O)(=O)O)cc3c2O)=Nc2ccc(S(=O)(=O)O)cc21` in this assay?
Reply: inactive

Task item: Also, `O=[N+]([O-])c1ccc(F)c(Cl)c1` please.
Reply: inactive

----------
test_method_notes: qHTS assay to identify small molecule antagonists of the constitutive androstane receptor (CAR) signaling pathway - cell viability counter screen (AID 1224837); note: % is set by controls: 0 for no effect and ±100 for the full control effect; nearly all actives have a fitted effect of over 45% in size
measurement_context: HepG2-CYP2B6-hCAR viability, CellTiter-Fluor, 23 h, co-treated with 50 nM CITCO; series mostly up to 92.4 µM
Records with an inconclusive call do not appear. The source made the active and inactive calls. The call rests on the fitted dose curve; in most records, active means well fitted cell-killing curve with a large enough effect in the repeat runs; inconclusive means weak or mixed curves, or effect the other way; inactive means flat fitted curve, though single readings scatter.
The categories you may choose from are yes = active, no = inactive

> print(dat)
                         compound  answer.label
1  O=C(O)c1cc(-c2ccc(F)cc2F)ccc1O            no
2             Clc1sc(Cl)c(Cl)c1Cl            no

Task item: Could you please tell me the result logged for `CC(C)CCCCCOC(=O)CCS` in this assay?
Reply: no

Task item: Also, CC(N=C(NC#N)Nc1ccncc1)C(C)(C)C (stereo not drawn) please.
Reply: no

Task item: Also, `CCCCNS(=O)(=O)c1ccc(C)cc1` please.
Reply: no

Task item: Also, `[Cu+]` please.
Reply: no

Task item: Also, `CC/C=C\CCCCCO` please.
Reply: no

Task item: Also, `CC(C)(C)C1CCC(=O)CC1` please.
Reply: no

Task item: Also, `CCCCOC(=O)CO` please.
Reply: no

Task item: Also, `CCCCCc1ccc(Cl)cc1` please.
Reply: no

Task item: Also, `CCCCCC/C=C\CCCCCCCC(=O)O` please.
Reply: no

Task item: Also, `CCc1cccc(CC)c1NC(=O)CN(CC(=O)O)CC(=O)O` please.
Reply: no

Task item: Also, `Clc1nnc(Cl)c2ccccc12` please.
Reply: no

----------
test_method_notes: qHTS RealTime-Glo MT Cell Viability Assay in HEK293 cells - 40 hour (AID 1224874); note: % is set by controls: 0 for no effect and ±100 for the full control effect; nearly all actives have a fitted effect of over 50% in size
measurement_context: RealTime-Glo luminescence; hits give low values
Results filed as inconclusive are left out.
measure: max response (%)
Report the figure in % without appending any unit label.

The cases that follow already have their max response on record.
> print(dat)
                                   compound  recorded.value
1  C[C@H]1NCc2cc(-c3ccc4c(=O)c(C(=O)O)cn(C5CC5)c4c3OC(F)F)ccc21            -6.6
2  CC(C(=O)O)c1ccc2c(c1)[nH]c1ccc(Cl)cc12 (configuration not stated)            1.73
3                      Clc1nnc(Cl)c2ccccc12           -4.03
4  CCCCCCOC(=O)C(C)CC (configuration not stated)           -1.46
5                    C=C(C)C(=O)OCCCCCCCCCC            14.3

Task item: Entry under review: CC(N=C(NC#N)Nc1ccncc1)C(C)(C)C (configuration not stated) . Reported max response?
Reply: -0.652

Task item: Also, `C=Cc1ccccc1C=C` please.
Reply: 16.3

----------
target_system: Cytochrome P450 2D6 (Homo sapiens)
test_method_notes: Cytochrome P450 Family 2 Subfamily D Member 6 (CYP2D6) small molecule antagonists: luciferase reporter qHTS assay (AID 1671196); note: nearly all actives have a fitted effect of over 50% in size
measurement_context: P450-Glo CYP2D6 enzyme assay, luciferin luminescence, 1 h; series mostly up to 115 µM
Inconclusive results are not listed. Active and inactive are the calls of the source. Calls come from the whole dose curve; as a rule, active = well fitted inhibition curve with a large enough effect in the repeat runs; inconclusive = weak or mixed curves; inactive = no such curve, though single readings can be large or run the other way.
The categories you may choose from are active, inactive

Would you please look over these solved cases?
> print(dat)
                                   molecule  answer.label
1  O=c1[nH]c(=O)n([C@H]2C[C@H](O)[C@@H](CO)O2)cc1F      inactive
2  Cc1cc(-c2ccc(N=Nc3cc(S(=O)(=O)O)c4ccccc4c3N)c(C)c2)ccc1N=Nc1cc(S(=O)(=O)O)c2ccccc2c1N        active
3  O=C(O)c1cc(N=Nc2ccc([N+](=O)[O-])cc2)ccc1O        active
4  C=CC(C)(CCC=C(C)C)OC=O (stereo not given)      inactive

Please find the next molecule below.
Task item: Could you please tell me the result logged for `CC[C@H](C)COC(=O)/C=C/c1ccc(N=Cc2ccc(OC)cc2)cc1` in this assay?
Reply: active

Taken from PubChem BioAssay (Tox21).
